Numbers sourced from patent US20250345318A1.

ASSAY INFO: Pharmacokinetics of R-JAC4 and S-JAC4 in mice (Example 17)
Assay type: in vivo
CONDITION NOTES: mouse, plasma; female BALB/c mice, single intravenous dose 3 mg/kg, mean, n = 3
Each record here notes measured AUC(0-t).
OBSERVABLE: AUC(0-t) (ng·h/mL)

>>> numeric_readout("c1ccc(CSc2nnc([C@H]3COc4ccccc4O3)o2)nc1")
374
>>> numeric_readout("c1ccc(CSc2nnc([C@@H]3COc4ccccc4O3)o2)nc1")
410

----------
ASSAY INFO: Pharmacokinetics of R-JAC4 and S-JAC4 in mice (Example 17)
Format: in vivo
CONDITION NOTES: mouse, plasma; female BALB/c mice, single intravenous dose 3 mg/kg, mean, n = 3
OBSERVABLE: half-life (h)

>>> numeric_readout("c1ccc(CSc2nnc([C@@H]3COc4ccccc4O3)o2)nc1 [S-JAC4]")
1.93
>>> numeric_readout("c1ccc(CSc2nnc([C@H]3COc4ccccc4O3)o2)nc1 [R-JAC4]")
0.6

----------
ASSAY INFO: Pharmacokinetics of R-JAC4 and S-JAC4 in mice (Example 17)
Type: in vivo
CONDITION NOTES: mouse, plasma; female BALB/c mice, single intravenous dose 3 mg/kg, mean, n = 3; read-out: Vss
OBSERVABLE: Vd

>>> result("c1ccc(CSc2nnc([C@H]3COc4ccccc4O3)o2)nc1")
"3.64 L/kg"
>>> result("c1ccc(CSc2nnc([C@@H]3COc4ccccc4O3)o2)nc1")
"7.72 L/kg"

----------
ASSAY INFO: Pharmacokinetics of R-JAC4 and S-JAC4 in mice (Example 17)
Type: in vivo
CONDITION NOTES: mouse, plasma, po; female BALB/c mice, single intragastric dose 10 mg/kg, mean, n = 3
OBSERVABLE: AUC(0-t) (µg·h/mL)

>>> numeric_readout("c1ccc(CSc2nnc([C@H]3COc4ccccc4O3)o2)nc1")
0.0495
>>> numeric_readout("c1ccc(CSc2nnc([C@@H]3COc4ccccc4O3)o2)nc1")
0.0172

----------
ASSAY INFO: Pharmacokinetics of R-JAC4 and S-JAC4 in mice (Example 17)
Type: in vivo
CONDITION NOTES: mouse, plasma, po; female BALB/c mice, single intragastric dose 10 mg/kg, mean, n = 3
OBSERVABLE: Cmax (ng/mL)

>>> numeric_readout("c1ccc(CSc2nnc([C@@H]3COc4ccccc4O3)o2)nc1")
48.7
>>> numeric_readout("c1ccc(CSc2nnc([C@H]3COc4ccccc4O3)o2)nc1")
176

----------
ASSAY INFO: Pharmacokinetics of R-JAC4 and S-JAC4 in mice (Example 17)
Assay type: in vivo
CONDITION NOTES: mouse, plasma; female BALB/c mice, single intravenous dose 3 mg/kg, mean, n = 3
Attribute: C0
OBSERVABLE: C0

>>> result("c1ccc(CSc2nnc([C@H]3COc4ccccc4O3)o2)nc1 [R-JAC4]")
"1680 ng/mL"
>>> result("c1ccc(CSc2nnc([C@@H]3COc4ccccc4O3)o2)nc1 [S-JAC4]")
"1650 ng/mL"
